test system: Hepatitis B virus (HBV); assay: HBV growth inhibition effect: HBV-DNA synthesis in HB611 cells, Southern blotting; format: cell-based; settings: HB611, 408 h, read-out: 50% inhibitory concentration for HBV-DNA synthesis
experimental readout: pIC50
Remember, pIC50 is on a log scale: it is -log10 of the molar concentration.

CC(C)(C)C(=O)OCOP(=O)(COCCn1cnc2c(N)ncnc21)OCOC(=O)C(C)(C)C
5.97

Continue with the compound presented below.
Exercise: Let me know recorded pIC50 for Nc1ncnc2c1ncn2CCOCP(=O)(O)O , thanks.
Key: 6.52

----------
test: Cytotoxicity: concentration causing death to 50% of HB611 cells; type: cell-based; conditions: human, read-out: 50% Cytotoxic concentration for HB611 cells
experimental readout: CC50 (µM)
// return numeric value only (unit: µM, not printed)

CC(C)(C)C(=O)OCOP(=O)(COCCn1cnc2c(N)ncnc21)OCOC(=O)C(C)(C)C
17.7

Continue with the compound presented below.
Exercise: Let me know recorded CC50 for Nc1ncnc2c1ncn2CCOCP(=O)(O)O , thanks.
Key: 334

----------
experiment: Cytotoxicity: concentration causing death to 50% of HB611 cells; type: cell-based; settings: human, read-out: 50% Cytotoxic concentration for HB611 cells
# reported CC50; entries follow

Past entries and their recorded results:
CCSc1nc(N)nc2c1ncn2CCOCP(=O)(OCC(F)(F)F)OCC(F)(F)F [Compound 2]
> 1000 µM
CCCSc1nc(N)nc2c1ncn2CCOCP(=O)(OCC(F)(F)F)OCC(F)(F)F [Compound 3]
> 1000 µM

Exercise: Let me know recorded CC50 for CC(C)Sc1nc(N)nc2c1ncn2CCOCP(=O)(OCC(F)(F)F)OCC(F)(F)F [Compound 4] , thanks.
Key: > 1000 µM
